- Study system: recombinant eIF4E (Homo sapiens (Human), UniProt P06730)
- Sequence (P06730 whole entry): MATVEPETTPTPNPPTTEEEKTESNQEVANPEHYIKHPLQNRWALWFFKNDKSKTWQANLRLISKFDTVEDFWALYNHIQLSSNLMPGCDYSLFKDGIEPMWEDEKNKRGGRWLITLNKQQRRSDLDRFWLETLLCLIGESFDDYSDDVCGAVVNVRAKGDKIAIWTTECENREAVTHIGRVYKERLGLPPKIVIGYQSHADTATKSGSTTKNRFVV
- Run description: Fluorescence polarization competition assay for eIF4E binding potency
- Condition label: inhibition of eIF4E/EDA-m7GDP-ATTO-550 binding by 50%; Table 4B calculated values; read-out: IC50
Would you kindly list IC50 for each of these compounds?
Remember to quote the unit after the number.

Given item Cc1nc2cc(C(F)(F)F)cc(C#N)c2c(=O)n1CCOc1ccc(Cl)cc1-c1cccc2c(C(=O)O)csc12 [compound 402] , the value recorded as its IC50 is 124 nM

Given item CNc1nc2c(F)c(F)cc(CCOc3ccc(Cl)cc3-c3cccc(C(=O)O)c3)c2c(=O)[nH]1 [compound 172] , the value recorded as its IC50 is 92.3 nM

Given item Cc1nc2cc(S(C)(=O)=O)c(Cl)c(C#N)c2c(=O)n1CCOc1ccc(Cl)cc1-c1ccnc2c(C(=O)O)csc12 [compound 277] , the value recorded as its IC50 is 30.7 nM

Given item Cc1ccc(-c2ncc3nc(C)n(CCOc4ccc(Cl)cc4-c4cc(C)nc5c(C(=O)O)csc45)c(=O)c3c2C#N)cc1 [compound 946] , the value recorded as its IC50 is 27.7 nM
